Target: T1, EBOV GP (recombinant, full-length extracellular domain) (EBOV (Ebola Zaire), UniProt Q05320 33-650)
T1 chain: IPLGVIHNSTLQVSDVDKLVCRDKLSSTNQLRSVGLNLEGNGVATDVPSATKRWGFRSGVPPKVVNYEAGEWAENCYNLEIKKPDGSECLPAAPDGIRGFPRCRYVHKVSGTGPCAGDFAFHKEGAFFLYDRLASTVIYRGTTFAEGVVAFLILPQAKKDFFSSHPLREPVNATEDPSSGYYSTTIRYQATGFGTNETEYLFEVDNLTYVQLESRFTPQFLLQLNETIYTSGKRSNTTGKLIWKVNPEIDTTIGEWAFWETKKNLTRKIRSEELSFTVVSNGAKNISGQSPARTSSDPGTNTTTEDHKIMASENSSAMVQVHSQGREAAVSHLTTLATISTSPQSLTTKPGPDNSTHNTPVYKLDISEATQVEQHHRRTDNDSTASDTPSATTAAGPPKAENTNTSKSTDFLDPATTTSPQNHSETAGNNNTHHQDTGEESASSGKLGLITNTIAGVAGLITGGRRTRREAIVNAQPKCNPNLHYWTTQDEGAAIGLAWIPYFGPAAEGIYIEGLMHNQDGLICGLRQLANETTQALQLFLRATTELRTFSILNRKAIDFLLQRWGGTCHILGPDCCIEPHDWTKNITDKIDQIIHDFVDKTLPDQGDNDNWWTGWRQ
Experiment: ELISA
Measurement Type: EC50 (µg/mL)
Form entry: value (µg/mL) — number only.

Task: Specify measured EC50 for EBOV62 (antibody, V domains shown) VH: EVQLVESGGGLVQPGGSLRLSCAASGFTFSSYWMSWVRQAPGKGLEWVANIKQDGSAKYYVDSVKGRFTISRDNAKNSLYLQMNSLRAEDTAVYYCARDGLLGISDLLYPIYYFDYWGQGTLVTVSS VL: DIVMTQSPSSLSASVGDRVTITCRASQNIGSYLNWYQQKPGKAPNLLMYAASSLQSGVPSRFSGSGSGTDFTLTITSLQPEDFATYYCQQSYSIPRTFGQGTQLEIK .
Output: 0.228

Task: Specify measured EC50 for EBOV49 (antibody, V domains shown) VH: EVQLVESGGGLVQPGGSLRLSCAASGFTFSSYEINWVRQAPGRGLEWVSYISSSGRTIYYADSVKGRFTISRDNAKNSLYLQMNSLRAEDTAVYYCAREPYVDGILYGAGDSYFDYWGQGTLVTVSS VL: DIQMTQSPSSLSASVGDRVTITCRASQSISNYLNWYQQKPGKAPKVLIYAASSLQSGVSSRFSGSGSGTDFTLTISSLQPEDFATYFCQQSYNTPPVTFGQGTRLEIK .
Output: 0.262

Task: Specify measured EC50 for EBOV52 (antibody, V domains shown) VH: QVQLQESGPGLVKPSETLSLNCTVSGGSISSYYWSWIRQPPGKGLEWIGYIYDSGRTKYNPSLKSRVTISLDTSKNQFSLKLSSVTAADTAVYYCASLGPFDKLWFGELLPGWFDPWGQGTLVTVSS VL: EIVLTQSPATLSLSPGGRATLSCRASQSVHNYLAWYQQKSGQAPRLLIYDASNRATGIPARFSGSGSGTDFTLTISSLEPDDFAVYYCQHRSNWLTFGGGTKVEIK .
Output: 0.712

Task: Specify measured EC50 for EBOV87 (antibody, V domains shown) VH: QVQLVQSGAEVKRPGASVKVSCKASGYTFTSYAISWVRQAPGQGLEWMGWISGNNGNTNYAQKLQGRLTMTTDTSTSTAYMELRSLRSDDTAVYYCARDADIVVVVGATGTYYYGMDVWGQGTLVTVSS VL: DIVMTQSPSTLSASVGDRVTITCRASQSISSWLAWYQQKPGKAPKLLIYDASSLESGVPSRFSGSGSGTEFTLTISSLQPDDFATYYCQQYKSSLRTFGQGTQLEIK .
Output: 0.724
